Data origin, for the record: patent US20250361214A1

- assay-method-text: Size and charge determination of nanoparticles (Zetasizer Nano ZS), Example 1
- Assay type: physicochemical
- condition-context: nanoparticles of pure lipid (Table 1)
- Excerpt: Size and Charge Determination.
Class true: PDI at least 0.3. Class false: PDI below 0.3.

Consider the following illustrative entries.
>>> class("CCCCCCCCCCCCN(CCCCCCCCCCCC)c1nc(NCCS)nc(NCCC(=O)O)n1 [Lipid 5]")
"true"
>>> class("CCCCCCCCCCCCCCCCCCN(CCCCCCCCCCCCCCCCCC)c1nc(NCCCN(C)C)nc(NCCCN(C)C)n1 [Lipid 10]")
"false"
>>> class("CCCCCCCCCCCCN(CCCCCCCCCCCC)c1nc(NCCCN)nc(NCCCN)n1 [Lipid 3]")
"true"
>>> class("CCCCCCCCCCCCCCCCCCN(CCCCCCCCCCCCCCCCCC)c1nc(NCCCN)nc(NCCCN)n1 [Lipid 4]")
"false"
>>> class("CCCCCCCCCCCCN(CCCCCCCCCCCC)c1nc(NCCC(=O)O)nc(NCCC(=O)O)n1 [Lipid 1]")
"false"

Form field: PDI at least 0.3? Entry: CCCCCCCCCCCCCCCCCCN(CCCCCCCCCCCCCCCCCC)c1nc(NCCS)nc(NCCC(=O)O)n1 [Lipid 6] false

Assess whether reported PDI for CCCCCCCCCCCCN(CCCCCCCCCCCC)c1nc(NCCCN(C)C)nc(NCCCN(C)C)n1 [Lipid 9] sits at 0.3 or higher. false

----------
Could you please report measured pIC50 for the items listed next?
- Tested on: bone marrow derived macrophages
- assay-method-text: in vitro
- Format: cell-based
Give bare numbers, as −log10 of the molar value.

Some solved cases for reference:
>>> result("CCCCCCCCCCCCN(CCCCCCCCCCCC)c1nc(NCCCN)nc(NCCC(=O)O)n1")
3.56
>>> result("CCCCCCCCCCCCCCCCCCN(CCCCCCCCCCCCCCCCCC)c1nc(NCCS)nc(NCCC(=O)O)n1")
3.01
>>> result("CCCCCCCCCCCCN(CCCCCCCCCCCC)c1nc(NCCS)nc(NCCC(=O)O)n1")
3.17
>>> result("CCCCCCCCCCCCN(CCCCCCCCCCCC)c1nc(NCCC(=O)O)nc(NCCC(=O)O)n1")
2.96
>>> result("CCCCCCCCCCCCCCCCCCN(CCCCCCCCCCCCCCCCCC)c1nc(NCCCN)nc(NCCC(=O)O)n1")
3.64

As a next step, examine the compound that follows.
Return the recorded pIC50 value; entry: CCCCCCCCCCCCCCCCCCN(CCCCCCCCCCCCCCCCCC)c1nc(NCCCN)nc(NCCCN)n1 3.74

----------
Exercise: state measured Size for each of the compounds provided.
- assay-method-text: Size and charge determination of nanoparticles (Zetasizer Nano ZS), Example 1
- Type: physicochemical
- condition-context: nanoparticles of pure lipid, 1 mM, 25° C. (Table 1)
Answers are plain numbers, in nm.

Would you mind listing Size for each of the following compounds?
1. CCCCCCCCCCCCN(CCCCCCCCCCCC)c1nc(NCCC(=O)O)nc(NCCC(=O)O)n1 [Lipid 1]
2. CCCCCCCCCCCCCCCCCCN(CCCCCCCCCCCCCCCCCC)c1nc(NCCS)nc(NCCC(=O)O)n1 [Lipid 6]
3. CCCCCCCCCCCCN(CCCCCCCCCCCC)c1nc(NCCS)nc(NCCC(=O)O)n1 [Lipid 5]
4. CCCCCCCCCCCCN(CCCCCCCCCCCC)c1nc(NCCCN(C)C)nc(NCCCN(C)C)n1 [Lipid 9]
5. CCCCCCCCCCCCCCCCCCN(CCCCCCCCCCCCCCCCCC)c1nc(NCCCN(C)C)nc(NCCCN(C)C)n1 [Lipid 10]

1: 124; 2: 93; 3: 87; 4: 159; 5: 186

Give me Size for each of these compounds, listed below.
1. CCCCCCCCCCCCCCCCCCN(CCCCCCCCCCCCCCCCCC)c1nc(NCCCN)nc(NCCCN)n1 [Lipid 4]
2. CCCCCCCCCCCCN(CCCCCCCCCCCC)c1nc(NCCCN)nc(NCCCN)n1 [Lipid 3]

326
130

----------
- Tested on: bone marrow derived macrophages
- assay-method-text: in vitro
- Assay type: cell-based
- condition-context: LDH release, 24 hours (Table 1); read-out: ID50 (the source's name)
property: pIC50
Give bare numbers, as −log10 of the molar value.

Tell me measured pIC50 for CCCCCCCCCCCCCCCCCCN(CCCCCCCCCCCCCCCCCC)c1nc(NCCCN(C)C)nc(NCCCN(C)C)n1 [Lipid 10] please. 3.58

----------
- Tested on: canonical NFKB
- assay-method-text: THP-1-Blue NFKB reporter (SEAP) assay
- Format: cell-based, human
- condition-context: Homo sapiens, 24 h, read-out: IC50, canonical NFKB inhibition
property: pIC50
One number for each entry, as −log10 of the molar value.

Assign pIC50 to the following record: CCCCCCCC/C=C\CCCCCCCC(=O)OCC(C[N+](C)(C)C)OC(=O)CCCCCCC/C=C\CCCCCCCC.[Cl-] (stereo not shown) [DOTAP, 1,2-dioleoyl-3-trimethylammonium propane, reference compound] 4.55

----------
Please respond with reported Charge for every item in the list.
- assay-method-text: Size and charge determination of nanoparticles (Zetasizer Nano ZS), Example 1
- Format: physicochemical
- condition-context: zeta potential, nanoparticles of pure lipid (Table 1)
One number for each entry, in mV.

Below, 8 molecules whose answers are already recorded.
>>> result("CCCCCCCCCCCCN(CCCCCCCCCCCC)c1nc(NCCS)nc(NCCC(=O)O)n1")
"−73"
>>> result("CCCCCCCCCCCCN(CCCCCCCCCCCC)c1nc(NCCCN(C)C)nc(NCCCN(C)C)n1")
45
>>> result("CCCCCCCCCCCCCCCCCCN(CCCCCCCCCCCCCCCCCC)c1nc(NCCS)nc(NCCC(=O)O)n1")
"−71"
>>> result("CCCCCCCCCCCCN(CCCCCCCCCCCC)c1nc(NCCCN)nc(NCCC(=O)O)n1")
42
>>> result("CCCCCCCCCCCCCCCCCCN(CCCCCCCCCCCCCCCCCC)c1nc(NCCCN)nc(NCCC(=O)O)n1")
70
>>> result("CCCCCCCCCCCCN(CCCCCCCCCCCC)c1nc(NCCCN)nc(NCCCN)n1")
52
>>> result("CCCCCCCCCCCCCCCCCCN(CCCCCCCCCCCCCCCCCC)c1nc(NCCCN(C)C)nc(NCCCN(C)C)n1")
47
>>> result("CCCCCCCCCCCCCCCCCCN(CCCCCCCCCCCCCCCCCC)c1nc(NCCCN)nc(NCCCN)n1")
63

Identify measured Charge corresponding to CCCCCCCCCCCCN(CCCCCCCCCCCC)c1nc(NCCC(=O)O)nc(NCCC(=O)O)n1 −63
